Test system: RAW264.7
assay_remarks: Inhibition of LPS-induced TNF-alpha release in mouse RAW264.7 cells compound preincubated at 20 ug/ml for 1 hr before LPS treatment measured after 6 to 12 hrs by sandwich immunoassay
Format: functional
experimental_readout: inhibition at 20 µg/mL (%)
Numbers only, in %.

Consider the following illustrative entries.
CC1(C)CC[C@]2(C(=O)NN)CC[C@]3(C)C(=CC[C@@H]4[C@@]5(C)Cc6c([nH]c7ccccc67)C(C)(C)[C@@H]5CC[C@]43C)[C@@H]2C1	31.2
CC1(C)CC[C@]2(C(=O)NC3CCCCC3)CC[C@]3(C)C(=CC[C@@H]4[C@@]5(C)Cc6c([nH]c7ccccc67)C(C)(C)[C@@H]5CC[C@]43C)[C@@H]2C1	47.8
CNC(=O)[C@]12CCC(C)(C)C[C@H]1C1=CC[C@@H]3[C@@]4(C)Cc5c([nH]c6ccccc56)C(C)(C)[C@@H]4CC[C@@]3(C)[C@]1(C)CC2	43.7

# input compound: CC(=O)O[C@H]1CC[C@]2(C)[C@H]3CC=C4[C@@H]5CC(C)(C)CC[C@]5(C(=O)O)CC[C@@]4(C)[C@]3(C)CC[C@H]2C1(C)C ; wanted: its inhibition at 20 µg/mL
38.7
